Hi there, I'd appreciate the recorded protein stability index for every entry that follows.
assay: protein stability index of a GFP-peptide fusion (GPS, HEK-293T) (PSI 1-6); higher = more stable; details: treatment: DMSO; c terminus: a fixed tail appended;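 note: 24-mer peptide tiles fused after GFP, lentivirally expressed, FACS-sorted into six equal bins by GFP/DsRed ratio, decoded by Illumina sequencing, PSI is the read-weighted mean bin number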
Write the value as a bare number.

Query string: Recorded protein stability index of GTILNYLRDGAVPLPESRREIEEL [KCTD10] , please.
Result string: 3.98

Query string: Need protein stability index of QLNRRGEFIQEIRRQLEACQRERA [OAS1] , thanks.
Result string: 4.09

Query string: Quick one: protein stability index of SQKATRECEKSALTPGFSDNAIML [FAN1] ?
Result string: 3.85

Query string: Consider the sequence NEYVAIKLEPIKSRAPQLHLEYRF [CSNK1G1] and give its measured protein stability index.
Result string: 2.31

Query string: Value lookup for protein stability index; key = VNPLHVDSTWLLLRRIRAESGTKG [SLC25A39]
Result string: 2.83

Query string: Recorded protein stability index of PVLEDNYMYLVIEELTREAVAVDV [HAGHL] , please.
Result string: 2.34

Query string: // query protein stability index value for entry GGGLLKYSNLLVRDFRPTDQEEIK [TENT5C]
Result string: 3.79

Query string: Which value of protein stability index has been reported for MADGNEDLRADDLPGPAFESYESM [KLHDC2] in the records?
Result string: 5.41

Query string: Item under review: ETILNAFKMLDPDGKGKINKEYIK [MYL5] . Reported protein stability index?
Result string: 2.96

Query string: Can you share its protein stability index? I mean this sequence: LEKEREKEISDDEAEEEKGEKEEE [HSP90AB1]
Result string: 5.66

Query string: Quick one: protein stability index for ADLENEDIFPELDDILYHVKGMQR [DLC1] ?
Result string: 3.7

Query string: Field request: protein stability index | item: GYEKRNLARVPKLDLKRQYDRVAQ [CHGB]
Result string: 3.37

Query string: Param item = VQRHNSFSPNSPQFNVSGPGLLEE [NECAB1] ; retrieve measured protein stability index.
Result string: 4.03

Query string: May I ask what protein stability index has been recorded for GRYVKENCKPLKSYMLQDSLEHVQ [CLK3] ?
Result string: 3.1

Query string: Dear colleague, I am looking for the recorded protein stability index of the following sequence: PWARGCGMFTFLSSVTAAVSGLLV [SLC2A12]
Result string: 2.54

Query string: Reported protein stability index for EKKDDENIPMETEETHLEETTESQ [SMARCE1] : what is it?
Result string: 5.58

Query string: I would be grateful if you could share the reported protein stability index for RADVDHAIEKAFQLWSNVTPLTFT [MMP1] .
Result string: 2.13

Query string: What value of protein stability index has been reported for the following sequence? KCLYYLYATLDLNAVKYVSNIKFC [PDS5B]
Result string: 3.06

Query string: protein stability index for RVRLDSELRNVQDVVEDYKKRYEE [KRT71] ?
Result string: 4.81

Query string: Entry under review: VGGATPDQTTSEETVGGAILDQTT [HDAC6] . Reported protein stability index?
Result string: 5.48

Query string: Returns the measured protein stability index for the input sequence. Input: WRLLNPGEYVVTAKAEGFTASTKN [CPXM2]
Result string: 3.09

Query string: // lookup protein stability index for DVCSFPNALVTKLLLDCGAEVNAV [FEM1B]
Result string: 2.48

Query string: What protein stability index value was documented for this sequence, EGHPFKAYLELEITLSQEQIQKYT [RTN1] ?
Result string: 2.33

====

Give measured protein stability index for each item. Keep answers brief.
assay: protein stability index of a GFP-peptide fusion (GPS, HEK-293T) (PSI 1-6); higher = more stable; settings: treatment: MLN4924 1 uM, 8 h; c terminus: a fixed tail appended

Query string: Given the entry HGWLRPEMRTKEQILELLVLEQFL [ZNF263] , report its measured protein stability index.
Result string: 2.61

Query string: Given LGFGSAKEAVTGSRLGQGIGPIHL [LOXL2] , state its recorded protein stability index.
Result string: 2.64

Query string: Recorded protein stability index for SSSSSSQAPGQPPGNQAEHGAVTV [ZBTB22] , please?
Result string: 5.08

Query string: // returns reported protein stability index for input GQDTFCQGKADGLYPNPRERSSFY [CHIT1]
Result string: 3.57

Query string: Give the measured protein stability index of VLMKGQHLHLETFKAVLDGLDVLL [PRAME] .
Result string: 2.17

Query string: Bench note: what protein stability index did LPSNLLKKFRSSTSSSLGDKSEYL [KCNA4] show?
Result string: 3.23

Query string: Data request, read-out protein stability index, for TDRIAAAQYSVTGSAVARAVCKAT [SNAP91]
Result string: 3.94

Query string: Can you look up the measured protein stability index of DITDDCICDLARSIDFNKDGHIDI [PPEF2] for me?
Result string: 4.05

Query string: Quick check: protein stability index of NFPQCVLEISDQEVLEWYTAKDFI [EFHC1] ?
Result string: 2.6

Query string: Recorded protein stability index of TVDKQNISLWPREPPPKSGPSLVP [CD207] , please.
Result string: 3.73

Query string: # lookup: protein stability index of DELQQSFQKSHNSLQRWEHLKKVA [PRIM1]
Result string: 3.88

Query string: Please report the recorded protein stability index for GWETRGDRKARKPLVEKKRRARIN [HES6] .
Result string: 4.54

Query string: Recorded protein stability index of RVRLDSELRNVQDVVEDYKKRYEE [KRT71] , please.
Result string: 4.97

Query string: Sample LCGENFSHRSNLIRHQRIHTGEKP [ZNF263] — what was its protein stability index?
Result string: 3.72

Query string: Entry under review: LRLLQHTPSARRNYRIAGARLMRS [C6orf223] . Reported protein stability index?
Result string: 3.08

Query string: Look up protein stability index for this sequence: SPSFPEAPDSGRSAPYSAAFLELP [TBX6]
Result string: 3.93

Query string: Need protein stability index of SSFSLLLDLLSELYQKQPKIGYHL [INTS3] , thanks.
Result string: 2.86

Query string: Any idea what protein stability index was measured for VFMEFGPPNQQMSPSPMSHGHYSM [DLX1] ?
Result string: 2.24

Query string: Request the reported protein stability index associated with EDSKRWSKMDQLAKELTAEKRLEG [CHGA]
Result string: 5.11

Query string: Quick one: protein stability index of SLQEEPVEGFRITLVDESDLYNWE [UBE2R2] ?
Result string: 3.58

Query string: # protein stability index lookup, item PLHHQTQRFRLDNLLNMAYGVKSP [ELAVL3]
Result string: 2.63

Query string: Look at this sequence and give its reported protein stability index. DHVHILDTETFTWSQPITTGKAPS [KLHDC2]
Result string: 3.84

Query string: So what's the measured protein stability index for this one? PRGSHSSALERLETKLHLLRQEMV [LURAP1L]
Result string: 2.69

Query string: Fill in the blank: the reported protein stability index of SAPVETPRGKPPLNTRSQAPLLRW [HMOX1] is ____.
Result string: 3.72

Query string: Given the sequence REALVLRSVRVRLLLSFWKETDPL [PLD5] , what is its reported protein stability index?
Result string: 2.38

Query string: // query protein stability index value for entry LGSIFQQLAHMVKEQEETIQRIDE [STX5]
Result string: 4.26

Query string: Which protein stability index is reported for this sequence? FDMSRYSSSGYSSAEINQDLNIQL [FAM219A]
Result string: 3.12

Query string: Look up protein stability index: KQYVLLSILLCLLASGLVVFFLFP [TMEM106C]
Result string: 2.56

Query string: Give the measured protein stability index of KEDAKGKSEEELAECFRIFDRNAD [TNNC2] .
Result string: 5.71

Query string: Would you mind telling me what protein stability index value was observed for SQQQNMMQDYVRTGTYQRAILQNH [CARM1] ?
Result string: 3.12

Query string: What does the record list as protein stability index for GRFKLSIPHTHLLATLDPLALDRE [WDR88] ?
Result string: 2.76

Query string: Entry HDEDIKTTNVKSASRQKTSLGIEL [ZNF396] : reported protein stability index = ?
Result string: 4.58

Query string: Entry ESIESYDSCDRLTQSWSSQSSFNS [ETS1] : reported protein stability index = ?
Result string: 4.1

Query string: Looking for the measured protein stability index of LDFKDLLESEDWEEDNWDPELMEH [TEX19] , can you help?
Result string: 4.94

Query string: Quick one: protein stability index of WGLDQEQVFSLGDGVSGGFFGIRD [ZBED1] ?
Result string: 3.17

====

experiment: protein stability index of a GFP-peptide fusion (GPS, HEK-293T) (PSI 1-6); higher = more stable; conditions: treatment: MLN4924 1 uM, 8 h; c terminus: a fixed tail appended
Think of 3 as a floor: if protein stability index stands on it or above, it is MET; beneath it, NOT MET.

Query string: Can LCSRQDLYPALKGVNTVFHCASPP [NSDHL] be said to have protein stability index at or above 3?
Result string: NOT MET

Query string: Hello, I need to know if RLVFLAAFVVYLETETLVTREAVT [TSN] has measured protein stability index not below 3. Thanks!
Result string: NOT MET

Query string: Hello, I need to know if GGAICGGPDHRLRLWRLFQTLDVN [SLC25A25] has measured protein stability index not below 3. Thanks!
Result string: NOT MET

Query string: Determine whether this sequence has protein stability index no lower than 3: IYGMEGIPEKDMDERRRLLEQKTQ [ZNF207]
Result string: MET

Query string: Check the entry GEQVGRGPGFHAGTSALWRHLRSA [ZBED3] : does protein stability index equal or exceed 3?
Result string: MET

Query string: Item DAAIHGFRETEKSRWSEASRAILQ [ALKBH7] with protein stability index of 3 or above?
Result string: MET

Query string: Does the sequence YILLVTSDVLTISGTIMKIGIEAK [MCOLN1] have recorded protein stability index that is 3 or more?
Result string: MET
